target: human recombinant BACE2 (Homo sapiens (Human), UniProt Q9Y5Z0); test: In vitro enzymatic BACE2 FRET assay; format: biochemical; settings: BACE2 FRET enzyme assay; read-out: IC50 IP (μM) BACE2 enzyme
Sequence (Q9Y5Z0 63-518): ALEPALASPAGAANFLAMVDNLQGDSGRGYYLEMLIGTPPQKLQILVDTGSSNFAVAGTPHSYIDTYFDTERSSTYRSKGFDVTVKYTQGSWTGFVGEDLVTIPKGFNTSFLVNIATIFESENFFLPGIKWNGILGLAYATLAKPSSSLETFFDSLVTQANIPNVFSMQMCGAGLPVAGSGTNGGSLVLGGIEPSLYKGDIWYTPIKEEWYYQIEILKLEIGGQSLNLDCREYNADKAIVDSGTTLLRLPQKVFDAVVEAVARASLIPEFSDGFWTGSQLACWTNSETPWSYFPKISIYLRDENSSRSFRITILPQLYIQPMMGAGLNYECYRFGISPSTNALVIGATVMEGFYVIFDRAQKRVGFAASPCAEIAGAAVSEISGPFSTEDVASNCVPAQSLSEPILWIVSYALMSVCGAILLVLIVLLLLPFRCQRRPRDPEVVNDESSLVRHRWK
measurement_label: log10(IC50) (log10 of the value in µM)

| smiles | tested_target | measurement_label | recorded_value |
| --- | --- | --- | --- |
| NC1=N[C@](CF)(c2cc(NC(=O)c3ccc(Cl)cn3)ccc2F)[C@@H]2C[C@]2(CO)S1 | human recombinant BACE2 (Homo sapiens (Human), UniProt Q9Y5Z0) | log10(IC50) | -2.79 |
| N#Cc1ccc(C(=O)Nc2ccc(F)c([C@@]3(CF)N=C(N)S[C@H]4C[C@H]43)c2)nc1 | human recombinant BACE2 (Homo sapiens (Human), UniProt Q9Y5Z0) | log10(IC50) | -1.89 |
| COC[C@@]12C[C@@H]1[C@@](CF)(c1cc(Nc3nccc4cc(C#N)cnc34)cc(F)c1F)N=C(N)S2 | human recombinant BACE2 (Homo sapiens (Human), UniProt Q9Y5Z0) | log10(IC50) | -1.95 |
| Cc1nc(OCC(F)(F)F)cnc1C(=O)Nc1ccc(F)c([C@@]2(CF)N=C(N)S[C@@]3(CO)C[C@H]32)c1 | human recombinant BACE2 (Homo sapiens (Human), UniProt Q9Y5Z0) | log10(IC50) | -0.84 |
| N#Cc1cnc2c(Nc3cc(F)c(F)c([C@@]4(CF)N=C(N)S[C@H]5C[C@H]54)c3)ncnc2c1 | human recombinant BACE2 (Homo sapiens (Human), UniProt Q9Y5Z0) | log10(IC50) | -1.30 |
| C#CCOc1cnc(C(=O)Nc2cc(F)c(F)c([C@@]3(C)N=C(N)S[C@H]4C[C@H]43)c2)c(C)n1 | human recombinant BACE2 (Homo sapiens (Human), UniProt Q9Y5Z0) | log10(IC50) | -1.34 |
| N#Cc1ccc(C(=O)Nc2cc(F)c(F)c([C@@]3(CF)N=C(N)S[C@H]4C[C@H]43)c2)nc1 | human recombinant BACE2 (Homo sapiens (Human), UniProt Q9Y5Z0) | log10(IC50) | -1.56 |
| NC1=N[C@](CF)(c2cc(Nc3ncnc4cc(Cl)cnc34)ccc2F)[C@@H]2C[C@]2(CO)S1 | human recombinant BACE2 (Homo sapiens (Human), UniProt Q9Y5Z0) | log10(IC50) | -2.13 |
| N#Cc1cnc2c(Nc3ccc(F)c([C@@]4(CF)N=C(N)S[C@@]5(CO)C[C@H]54)c3)nccc2c1 | human recombinant BACE2 (Homo sapiens (Human), UniProt Q9Y5Z0) | log10(IC50) | -2.54 |
| COc1cnc2c(Nc3cc(F)c(F)c([C@@]4(CF)N=C(N)S[C@H]5C[C@H]54)c3)ncnc2c1 | human recombinant BACE2 (Homo sapiens (Human), UniProt Q9Y5Z0) | log10(IC50) | -0.88 |
| Cc1cc(C#N)cnc1C(=O)Nc1ccc(F)c([C@@]2(CF)N=C(N)S[C@H]3C[C@H]32)c1 | human recombinant BACE2 (Homo sapiens (Human), UniProt Q9Y5Z0) | log10(IC50) | -1.97 |
| C#CCOc1cnc(C(=O)Nc2cc(F)c(F)c([C@@]3(C)N=C(N)S[C@H]4C[C@H]43)c2)cn1 | human recombinant BACE2 (Homo sapiens (Human), UniProt Q9Y5Z0) | log10(IC50) | -1.43 |
| Cc1cc(C#N)cnc1C(=O)Nc1ccc(F)c([C@@]2(CF)N=C(N)S[C@@]3(CO)C[C@H]32)c1 | human recombinant BACE2 (Homo sapiens (Human), UniProt Q9Y5Z0) | log10(IC50) | -2.83 |
| CC#CCOc1cnc(C(=O)Nc2cc(F)c(F)c([C@@]3(C)N=C(N)S[C@@]4(CO)C[C@H]43)c2)c(C)c1 | human recombinant BACE2 (Homo sapiens (Human), UniProt Q9Y5Z0) | log10(IC50) | -1.36 |
| C#CCOc1cnc2c(Nc3cc(F)c(F)c([C@@]4(C)N=C(N)S[C@@]5(CO)C[C@H]54)c3)nccc2n1 | human recombinant BACE2 (Homo sapiens (Human), UniProt Q9Y5Z0) | log10(IC50) | -2.00 |
| C#CCOc1cnc2c(Nc3ccc(F)c([C@@]4(CF)N=C(N)S[C@@]5(CO)C[C@H]54)c3)nccc2c1 | human recombinant BACE2 (Homo sapiens (Human), UniProt Q9Y5Z0) | log10(IC50) | -0.64 |
| C#CCOc1cnc2c(Nc3cc(F)c(F)c([C@@]4(C)N=C(N)S[C@H]5C[C@H]54)c3)nccc2c1 | human recombinant BACE2 (Homo sapiens (Human), UniProt Q9Y5Z0) | log10(IC50) | -0.52 |
| COc1cnc2c(Nc3cc(F)c(F)c([C@@]4(C)N=C(N)S[C@@]5(CO)C[C@H]54)c3)ncnc2c1 | human recombinant BACE2 (Homo sapiens (Human), UniProt Q9Y5Z0) | log10(IC50) | -1.51 |
| COC[C@]12C[C@H]1[C@@](CF)(c1cc(NC(=O)c3ccc(Cl)cn3)cc(F)c1F)N=C(N)S2 | human recombinant BACE2 (Homo sapiens (Human), UniProt Q9Y5Z0) | log10(IC50) | -2.79 |
| C[C@]1(c2cc(NC(=O)c3ccc(Cl)cn3)cnc2F)N=C(N)S[C@@]2(CO)C[C@H]21 | human recombinant BACE2 (Homo sapiens (Human), UniProt Q9Y5Z0) | log10(IC50) | -2.42 |
| COc1cnc2c(Nc3cc(F)c(F)c([C@@]4(C)N=C(N)S[C@@]5(CO)C[C@H]54)c3)nccc2n1 | human recombinant BACE2 (Homo sapiens (Human), UniProt Q9Y5Z0) | log10(IC50) | -1.47 |
| N#Cc1cnc2c(Nc3cc(F)c(F)c([C@@]4(CF)N=C(N)S[C@@]5(CO)C[C@H]54)c3)nccc2c1 | human recombinant BACE2 (Homo sapiens (Human), UniProt Q9Y5Z0) | log10(IC50) | -2.49 |
| C#CCOc1ccc(C(=O)Nc2cc(F)c(F)c([C@@]3(C)N=C(N)S[C@@]4(CO)C[C@H]43)c2)nc1 | human recombinant BACE2 (Homo sapiens (Human), UniProt Q9Y5Z0) | log10(IC50) | -1.43 |
| COC[C@]12C[C@H]1[C@@](CF)(c1cc(Nc3ncnc4cc(Cl)cnc34)ccc1F)N=C(N)S2 | human recombinant BACE2 (Homo sapiens (Human), UniProt Q9Y5Z0) | log10(IC50) | -2.53 |
| COc1cnc2c(Nc3cc(F)c(F)c([C@@]4(C)N=C(N)S[C@@]5(CO)C[C@H]54)c3)nccc2c1 | human recombinant BACE2 (Homo sapiens (Human), UniProt Q9Y5Z0) | log10(IC50) | -1.44 |
| COc1cnc2c(Nc3cc(F)c(F)c([C@@]4(CF)N=C(N)S[C@H]5C[C@H]54)c3)nccc2n1 | human recombinant BACE2 (Homo sapiens (Human), UniProt Q9Y5Z0) | log10(IC50) | -1.05 |

###

Readings of IC50 for the listed compounds
target: human recombinant BACE1 (Homo sapiens (Human), UniProt P56817); test: In vitro enzymatic BACE1 FRET assay; format: biochemical; conditions: read-out: IC50 IP (μM) BACE1 enzyme
Sequence (P56817 46-501): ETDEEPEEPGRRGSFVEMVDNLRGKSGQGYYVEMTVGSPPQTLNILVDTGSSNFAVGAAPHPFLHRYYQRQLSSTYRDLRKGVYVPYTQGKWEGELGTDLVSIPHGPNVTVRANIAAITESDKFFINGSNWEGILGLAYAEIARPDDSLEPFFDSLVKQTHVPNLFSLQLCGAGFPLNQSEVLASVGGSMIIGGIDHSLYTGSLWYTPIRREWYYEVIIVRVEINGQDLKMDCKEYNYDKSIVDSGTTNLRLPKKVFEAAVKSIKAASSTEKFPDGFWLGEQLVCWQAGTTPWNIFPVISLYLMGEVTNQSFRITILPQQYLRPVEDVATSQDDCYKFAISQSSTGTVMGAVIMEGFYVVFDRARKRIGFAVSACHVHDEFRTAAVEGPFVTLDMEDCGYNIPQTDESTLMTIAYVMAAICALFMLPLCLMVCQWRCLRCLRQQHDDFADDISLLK

| compound | IC50, µM |
| --- | --- |
| C#CCOc1cnc2c(Nc3ccc(F)c([C@@]4(C)N=C(N)S[C@@]5(C(=O)NC)C[C@H]54)c3)nccc2n1 [Example 979] | 0.000315 |
| [2H]C([2H])([2H])OC[C@]12C[C@H]1[C@@](C)(c1cc(NC(=O)c3ncc(OCC#C)nc3C)cnc1F)N=C(N)S2 [Example 850] | 0.00121 |
| CCOC[C@]12C[C@H]1[C@@](CF)(c1cc(NC(=O)c3ncc(C#N)cc3C)ccc1F)N=C(N)S2 [Example 715] | 0.00409 |
| COC[C@]12C[C@H]1[C@@](C)(c1cc(NC(=O)c3cnc(OCC(C)(C)C)cn3)cc(F)c1F)N=C(N)S2 [Example 1069] | 0.0174 |
| COC[C@]12C[C@H]1[C@@](C)(c1cc(NC(=O)c3cnc(OCC(C)C)cn3)cc(F)c1F)N=C(N)S2 [Example 1028] | 0.00195 |
| C=C(C)COc1cnc(C(=O)Nc2cc(F)c(F)c([C@@]3(C)N=C(N)S[C@@]4(COC)C[C@H]43)c2)cn1 [Example 1030] | 0.00213 |
| C#CCOc1cnc2c(Nc3ccc(F)c([C@@]4(CF)N=C(N)S[C@H]5C[C@H]54)c3)nccc2n1 [Example 762] | 0.00303 |
| COC[C@]12C[C@H]1[C@@](C)(c1cc(NC(=O)c3cnc(OCC(F)(F)F)cn3)ccc1F)N=C(N)S2 [Example 831] | 0.00299 |
| C#CCOc1cnc(C(=O)Nc2ccc(F)c([C@@]3(CF)N=C(N)S[C@@]4(c5ocnc5C)C[C@@H]34)c2)cn1 [Example 784] | 0.000318 |
| CC(C)NC(=O)[C@]12C[C@H]1[C@@](C)(c1cc(NC(=O)c3cnc(OCC(F)(F)F)cn3)ccc1F)N=C(N)S2 [Example 976] | 0.000527 |
| N#CCC[C@]12C[C@H]1[C@@](CF)(c1cc(NC(=O)c3ccc(Cl)cn3)ccc1F)N=C(N)S2 [Example 723] | 0.00169 |
| COC[C@H](C)Oc1cnc(C(=O)Nc2cc(F)c(F)c([C@@]3(C)N=C(N)S[C@@]4(COC)C[C@H]43)c2)cn1 [Example 1024] | 0.00214 |
| COc1cnc2c(Nc3cc(F)c(F)c([C@@]4(C)N=C(N)S[C@@]5(C(F)F)C[C@@H]45)c3)nccc2n1 [Example 895] | 0.0053 |
| COC[C@]12C[C@H]1[C@@](C)(c1cc(NC(=O)c3ccc(Cl)cn3)cc(C)c1F)N=C(N)S2 [Example 1066] | 0.00161 |
